The measured values listed here are drawn from ChEMBL document CHEMBL3217541.

assay: Fraction unbound in rat plasma; assay type: ADME, cell-free
reported.metric: fraction unbound

query.smiles	measured
C[C@@H]1CN(C(=O)OC2(C(F)(F)F)COC2)CCN1c1ncc(OCc2ccncc2C#N)cn1	0.047

---

assay: Chemical stability of the compound at pH 4 at 10 uM after 18 hrs incubation at 65 degC; type: physicochemical; details: buffer
Reported values of half-life at 10 µM for individual entries

query.smiles	half-life at 10 µM
C[C@@H]1CN(c2nnc(C(F)(F)F)o2)CCN1c1ncc(OCc2ccncc2C#N)cn1	> 240 h
CC(C)(C)OC(=O)N1CCN(c2ncc(OCc3ccc(S(C)(=O)=O)cc3)cn2)CC1	1.44 h
C[C@@H]1CN(C(=O)OC2(C(F)(F)F)COC2)CCN1c1ncc(OCc2ccncc2C#N)cn1	> 240 h

---

test: Chemical stability of the compound at pH 10 at 10 uM after 18 hrs incubation at 65 degC; format: physicochemical; conditions: buffer
Quick reference for half-life at 10 µM among some molecules

query.smiles	unit.string	censoring.sign	half-life at 10 µM
CC(C)(C)OC(=O)N1CCN(c2ncc(OCc3ccc(S(C)(=O)=O)cc3)cn2)CC1	min	<	8.64
C[C@@H]1CN(C(=O)OC2(C(F)(F)F)COC2)CCN1c1ncc(OCc2ccncc2C#N)cn1	min	=	57.6
C[C@@H]1CN(c2nnc(C(F)(F)F)o2)CCN1c1ncc(OCc2ccncc2C#N)cn1	min	=	806

---

Items are presented alongside their recorded log10 of EC50.
Biological target: UniProt:Q8TDV5
Sequence (Q8TDV5 whole entry): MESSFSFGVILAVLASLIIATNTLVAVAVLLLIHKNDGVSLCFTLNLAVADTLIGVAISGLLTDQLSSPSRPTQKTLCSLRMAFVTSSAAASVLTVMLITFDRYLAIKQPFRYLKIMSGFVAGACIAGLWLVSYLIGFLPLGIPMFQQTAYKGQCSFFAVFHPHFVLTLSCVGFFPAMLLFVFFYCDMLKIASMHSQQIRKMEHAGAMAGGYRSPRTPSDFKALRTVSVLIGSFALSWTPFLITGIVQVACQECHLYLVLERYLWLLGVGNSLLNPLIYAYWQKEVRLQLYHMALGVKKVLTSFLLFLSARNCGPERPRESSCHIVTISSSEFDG
Assay: Agonist activity at human GPR119 transfected in HEK293 cells assessed as cAMP accumulation after 45 mins incubation by HTRF assay
reported.metric: log10 of EC50 (log10 of the value in nM)

molecule	target.entity	log10 of EC50
C[C@@H]1CN(C(=O)OC2(C(F)(F)F)COC2)CCN1c1ncc(OCc2ccncc2C#N)cn1	UniProt:Q8TDV5	1.30
C[C@@H]1CN(C(=O)OC2CCOCC2)CCN1c1ncc(OCc2ccncc2C#N)cn1	UniProt:Q8TDV5	2.80
CC(C)C1(OC(=O)N2CCN(c3ncc(OCc4ccncc4C#N)cn3)[C@H](C)C2)COC1	UniProt:Q8TDV5	2.30
C[C@@H]1CN(C(=O)OC2(C)COC2)CCN1c1ncc(OCc2ccncc2C#N)cn1	UniProt:Q8TDV5	2.30
C[C@@H]1CN(c2noc(C(C)(C)O)n2)CCN1c1ncc(OCc2ccncc2C#N)cn1	UniProt:Q8TDV5	2.80
C[C@@H]1CN(c2noc(C3(C)COC3)n2)CCN1c1ncc(OCc2ccncc2C#N)cn1	UniProt:Q8TDV5	1.80
C[C@@H]1CN(c2noc(C3COCCO3)n2)CCN1c1ncc(OCc2ccncc2C#N)cn1 (some centres not stated)	UniProt:Q8TDV5	2.00

---

experiment: in vitro; settings: human, liver microsomes
Doc: threshold 40 µL/min/mg (exclusive). Items with microsomal CLint beneath it return Condition met; others return Condition not met.

compound	discrete.label
CC(C)c1nc(N2CCN(c3ncc(OCc4ccncc4C#N)cn3)[C@H](C)C2)no1	Condition met
C[C@@H]1CN(C(=O)OC2(C(F)(F)F)CCOC2)CCN1c1ncc(OCc2ccncc2C#N)cn1 (stereo partly specified)	Condition not met
C[C@@H]1CN(c2noc(C3COCCO3)n2)CCN1c1ncc(OCc2ccncc2C#N)cn1 (stereo partly specified)	Condition met
C[C@@H]1CN(c2noc(C(C)(C)O)n2)CCN1c1ncc(OCc2ccncc2C#N)cn1	Condition met
C[C@@H]1CN(C(=O)OC2(C(F)(F)F)COC2)CCN1c1ncc(OCc2ccncc2C#N)cn1	Condition not met
C[C@@H]1CN(C(=O)OC2CCOCC2)CCN1c1ncc(OCc2ccncc2C#N)cn1	Condition met
C[C@@H]1CN(C(=O)OC(C)(C)C)CCN1c1ncc(OCc2ccncc2C#N)cn1	Condition not met
C[C@@H]1CN(C(=O)OC2COC2)CCN1c1ncc(OCc2ccncc2C#N)cn1	Condition met
C[C@@H]1CN(C(=O)OC2(C)COC2)CCN1c1ncc(OCc2ccncc2C#N)cn1	Condition met
C[C@@H]1CN(c2noc(C3(C)COC3)n2)CCN1c1ncc(OCc2ccncc2C#N)cn1	Condition not met
CC(C)C1(OC(=O)N2CCN(c3ncc(OCc4ccncc4C#N)cn3)[C@H](C)C2)COC1	Condition not met

---

test: Chemical stability of the compound at pH 8 at 10 uM after 18 hrs incubation at 65 degC; assay type: physicochemical; settings: buffer

query.smiles	half-life at 10 µM
C[C@@H]1CN(c2nnc(C(F)(F)F)o2)CCN1c1ncc(OCc2ccncc2C#N)cn1	> 240 h
CC(C)(C)OC(=O)N1CCN(c2ncc(OCc3ccc(S(C)(=O)=O)cc3)cn2)CC1	2.64 h
C[C@@H]1CN(C(=O)OC2(C(F)(F)F)COC2)CCN1c1ncc(OCc2ccncc2C#N)cn1	> 240 h

---

test: physchem; conditions: octanol/phosphate buffer, pH 7.4

molecule	logD
C[C@@H]1CN(c2noc(C3(C)COC3)n2)CCN1c1ncc(OCc2ccncc2C#N)cn1	3
C[C@@H]1CN(C(=O)OC2CCOCC2)CCN1c1ncc(OCc2ccncc2C#N)cn1	2.2
C[C@@H]1CN(C(=O)OC2COC2)CCN1c1ncc(OCc2ccncc2C#N)cn1	1.6
C[C@@H]1CN(c2noc(C3COCCO3)n2)CCN1c1ncc(OCc2ccncc2C#N)cn1 (some centres not stated)	2.3
C[C@@H]1CN(C(=O)OC2(C(F)(F)F)COC2)CCN1c1ncc(OCc2ccncc2C#N)cn1	2.5
C[C@@H]1CN(c2noc(C(C)(C)O)n2)CCN1c1ncc(OCc2ccncc2C#N)cn1	2.4
C[C@@H]1CN(C(=O)OC2(C(F)(F)F)CCOC2)CCN1c1ncc(OCc2ccncc2C#N)cn1 (some centres not stated)	3.1

---

assay: physchem; settings: aqueous phosphate buffer, pH 7.4
Label NOT MET if solubility at 24 h falls below 30 µM; label MET in every other case.

compound	discrete.label
C[C@@H]1CN(C(=O)OC2(C)COC2)CCN1c1ncc(OCc2ccncc2C#N)cn1	MET
C[C@@H]1CN(C(=O)OC2(C(F)(F)F)COC2)CCN1c1ncc(OCc2ccncc2C#N)cn1	MET
CC(C)c1nc(N2CCN(c3ncc(OCc4ccncc4C#N)cn3)[C@H](C)C2)no1	NOT MET
C[C@@H]1CN(c2noc(C3(C)COC3)n2)CCN1c1ncc(OCc2ccncc2C#N)cn1	MET
C[C@@H]1CN(C(=O)OC2(C(F)(F)F)CCOC2)CCN1c1ncc(OCc2ccncc2C#N)cn1 (stereo partly specified)	MET
N#Cc1cnccc1COc1cnc(N2CCN(C(=O)OC3CCOC3)CC2)nc1 (racemic)	MET
C[C@@H]1CN(c2noc(C(C)(C)O)n2)CCN1c1ncc(OCc2ccncc2C#N)cn1	NOT MET
CC(C)(C)OC(=O)N1CCN(c2ncc(OCc3ccc(S(C)(=O)=O)cc3)cn2)CC1	NOT MET
C[C@@H]1CN(C(=O)OC2COC2)CCN1c1ncc(OCc2ccncc2C#N)cn1	MET
C[C@@H]1CN(C(=O)OC2CCOCC2)CCN1c1ncc(OCc2ccncc2C#N)cn1	MET

---

assay: Apparent permeability across basolateral to apical side of human Caco2 cells; type: ADME, cell-based; settings: Caco-2
reported.metric: Papp B→A (×10⁻⁶ cm/s)

query.smiles	measured
C[C@@H]1CN(C(=O)OC2(C(F)(F)F)COC2)CCN1c1ncc(OCc2ccncc2C#N)cn1	9

---

assay: Chemical stability of the compound at pH 6 at 10 uM after 18 hrs incubation at 65 degC; type: physicochemical; details: buffer

query.smiles	half-life at 10 µM
C[C@@H]1CN(c2nnc(C(F)(F)F)o2)CCN1c1ncc(OCc2ccncc2C#N)cn1	> 240 h
C[C@@H]1CN(C(=O)OC2(C(F)(F)F)COC2)CCN1c1ncc(OCc2ccncc2C#N)cn1	> 240 h
CC(C)(C)OC(=O)N1CCN(c2ncc(OCc3ccc(S(C)(=O)=O)cc3)cn2)CC1	2.88 h

---

molecular target: Glucose-dependent insulinotropic receptor (Mus musculus, UniProt Q7TQP3); assay: Agonist activity at mouse GPR119 transfected in HEK293 cells assessed as cAMP accumulation after 45 mins incubation by HTRF assay
Sequence (Q7TQP3 whole entry): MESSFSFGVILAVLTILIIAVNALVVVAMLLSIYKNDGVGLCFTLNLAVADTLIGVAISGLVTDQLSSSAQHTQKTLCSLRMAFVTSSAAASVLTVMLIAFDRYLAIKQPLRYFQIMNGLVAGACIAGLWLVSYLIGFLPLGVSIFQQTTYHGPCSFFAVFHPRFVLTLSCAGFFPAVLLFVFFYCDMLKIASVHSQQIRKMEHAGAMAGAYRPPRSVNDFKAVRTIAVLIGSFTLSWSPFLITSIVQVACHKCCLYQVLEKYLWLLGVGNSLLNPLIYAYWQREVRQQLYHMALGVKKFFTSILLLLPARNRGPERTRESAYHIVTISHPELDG
pEC50: −log10 of the molar value.

molecule	target.entity	censoring.sign	pEC50
C[C@@H]1CN(C(=O)OC2CCOCC2)CCN1c1ncc(OCc2ccncc2C#N)cn1	Glucose-dependent insulinotropic receptor (Mus musculus, UniProt Q7TQP3)	<	5.10
CC(C)C1(OC(=O)N2CCN(c3ncc(OCc4ccncc4C#N)cn3)[C@H](C)C2)COC1	Glucose-dependent insulinotropic receptor (Mus musculus, UniProt Q7TQP3)	=	6.30
C[C@@H]1CN(C(=O)OC2(C(F)(F)F)COC2)CCN1c1ncc(OCc2ccncc2C#N)cn1	Glucose-dependent insulinotropic receptor (Mus musculus, UniProt Q7TQP3)	=	6.80
C[C@@H]1CN(c2noc(C(C)(C)O)n2)CCN1c1ncc(OCc2ccncc2C#N)cn1	Glucose-dependent insulinotropic receptor (Mus musculus, UniProt Q7TQP3)	=	6.20
C[C@@H]1CN(c2noc(C3COCCO3)n2)CCN1c1ncc(OCc2ccncc2C#N)cn1 (some centres not stated)	Glucose-dependent insulinotropic receptor (Mus musculus, UniProt Q7TQP3)	=	6.20
C[C@@H]1CN(c2noc(C3(C)COC3)n2)CCN1c1ncc(OCc2ccncc2C#N)cn1	Glucose-dependent insulinotropic receptor (Mus musculus, UniProt Q7TQP3)	=	7.00
C[C@@H]1CN(C(=O)OC2(C)COC2)CCN1c1ncc(OCc2ccncc2C#N)cn1	Glucose-dependent insulinotropic receptor (Mus musculus, UniProt Q7TQP3)	=	6.20
